# credit: patent US20200031947A1

target: T1, cynomolgus GITR (cyGITR), soluble analyte (cynomolgus); experiment: SPR (Biacore T200), 37 C; antibody captured on anti-human Fc chip, GITR as analyte; 1:1 Langmuir fit
T1 construct: Soluble analyte in SPR; construct not described; also called cGITR
Measured Parameter: Kd (nM)
The reply should contain only the number, in nM.

Binder | Kd [nM]
h3G7 AM (antibody, V domains shown, Whole IgG captured on an anti-human Fc chip) VH: QVQLVQSGAEVKKPGASVKVSCKASGYTFTGATMNWVRQAPGQGLEWMGLINPYNGGIRYNQKFKGRVTMTRDTSTSTVYMELSSLRSEDTAVYYCARIGGYYDSMDYWGQGTLVTVSS VL: DIQMTQSPSSLSASVGDRVTITCRASESVDPRGINFLNWYQQKPGKAPKLLIYAASNQAKGVPSRFSGSGSGTDFTLTISSLQPEDFATYYCQQALELPWTFGGGTKVEIK | 13

Turning now to a further record.
Field request: Kd | item: h3G7 R5 (antibody, V domains shown, Only variable domains are tied to this name) VH: QVQLVQSGAEVKKPGASVKVSCKASGYTFTGATMNWVRQAPGQGLEWMGLINPYTGGIRYNQKFKGRVTMTRDTSTSTVYMELSSLRSEDTAVYYCARIGGYYDSMDYWGQGTLVTVSS VL: DIQMTQSPSSLSASVGDRVTITCRASESVEPRGINFLNWYQQKPGKAPKLLIYAASQASKGVPSRFSGSGSGTDFTLTISSLQPEDFATYYCQQALELPWTFGGGTKVEIK
6.4
